Data origin: ChEMBL document CHEMBL3352571

Target: Transient receptor potential cation channel subfamily M member 8 (Mus musculus)
Sequence (Q8R4D5 whole entry): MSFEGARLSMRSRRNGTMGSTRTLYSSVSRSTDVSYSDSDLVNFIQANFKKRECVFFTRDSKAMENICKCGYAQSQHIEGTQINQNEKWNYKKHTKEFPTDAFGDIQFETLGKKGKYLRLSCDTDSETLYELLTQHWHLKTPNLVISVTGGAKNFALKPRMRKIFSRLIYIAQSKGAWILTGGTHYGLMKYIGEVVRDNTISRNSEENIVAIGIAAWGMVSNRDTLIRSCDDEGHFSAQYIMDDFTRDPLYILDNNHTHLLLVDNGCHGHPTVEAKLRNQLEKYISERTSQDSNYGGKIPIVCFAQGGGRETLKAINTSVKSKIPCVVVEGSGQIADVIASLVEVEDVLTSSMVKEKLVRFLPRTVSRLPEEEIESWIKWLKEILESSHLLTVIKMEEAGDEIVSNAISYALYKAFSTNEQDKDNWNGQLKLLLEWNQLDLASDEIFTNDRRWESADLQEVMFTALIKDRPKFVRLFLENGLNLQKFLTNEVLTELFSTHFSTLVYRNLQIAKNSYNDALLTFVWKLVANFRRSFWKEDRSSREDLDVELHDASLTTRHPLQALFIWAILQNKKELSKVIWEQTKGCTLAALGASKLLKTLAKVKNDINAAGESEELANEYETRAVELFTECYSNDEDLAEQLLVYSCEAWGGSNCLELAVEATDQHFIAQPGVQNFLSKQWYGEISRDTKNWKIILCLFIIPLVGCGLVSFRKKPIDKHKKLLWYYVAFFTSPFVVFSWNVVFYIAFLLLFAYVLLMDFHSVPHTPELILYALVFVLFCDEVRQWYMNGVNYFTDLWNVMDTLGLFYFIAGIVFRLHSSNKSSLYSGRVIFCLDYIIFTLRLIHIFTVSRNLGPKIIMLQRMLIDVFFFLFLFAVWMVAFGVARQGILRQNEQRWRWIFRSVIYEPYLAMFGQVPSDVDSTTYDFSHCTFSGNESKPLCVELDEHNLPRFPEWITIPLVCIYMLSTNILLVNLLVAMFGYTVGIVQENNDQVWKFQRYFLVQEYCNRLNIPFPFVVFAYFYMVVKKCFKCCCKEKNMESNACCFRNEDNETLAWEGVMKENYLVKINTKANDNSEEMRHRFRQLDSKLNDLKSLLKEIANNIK
Experiment: Antagonist activity against mouse TRPM8 expressed in T-REx HEK cells assessed as inhibition of icilin-induced increase in intracellular Ca2+ accumulation pre-incubated for 3 mins prior to icilin stimulation by Fluo-4 AM dye based fluorescence assay
Format: cell-based
Settings: read-out: IC50
pIC50: −log10 of the molar value.
Listing of entries alongside the reported pIC50.

query smiles	pIC50
CC[C@H]1C[C@H]2CN3CCc4c([nH]c5ccc(OC)cc45)[C@](CO)(C2)[C@H]13	3.98
CC[C@H]1C[C@H]2CN3Cn4c(c(COC)c5ccc(OC)cc54)[C@](C(=O)OC)(C2)[C@H]13	5.15
CCC1=C[C@@H]2CN3CCc4c([nH]c5ccccc45)[C@@](C(=O)OC)(C2)[C@@H]13	6.05
CC[C@H]1C[C@@H]2CN3CCc4c([nH]c5ccc(OC)cc45)[C@](C(=O)OC)(C2)[C@H]13	5.15
CC[C@H]1C[C@@H]2CN3CCc4c([nH]c5ccccc45)[C@@](C(=O)OC)(C2)[C@@H]13	6.22
CC[C@H]1C[C@@H]2CN3CCc4c([nH]c5ccccc45)[C@](C(=O)OC)(C2)[C@H]13	4.80
CC[C@H]1C[C@H]2CN3CC[C@@]4(O)C(=Nc5ccc(OC)cc54)[C@](C(=O)OC)(C2)[C@H]13	3.90

* * *

Target: Transient receptor potential cation channel subfamily M member 8 (Mus musculus)
Assay: Antagonist activity against mouse TRPM8 expressed in T-REx HEK cells assessed as inhibition of cold-induced increase in intracellular Ca2+ accumulation pre-incubated for 3 mins prior to cold stimulation by Fluo-4 AM dye based fluorescence assay
Type: cell-based
experimental readout: IC50

compound	experimental readout	reading
CC[C@H]1C[C@H]2CN3Cn4c(c(COC)c5ccc(OC)cc54)[C@](C(=O)OC)(C2)[C@H]13	IC50	Not Active
CC(C)(C)c1ccc(NC(=O)N2CCN(c3ncccc3Cl)CC2)cc1	IC50	Active
CC[C@H]1C[C@@H]2C[C@@]3(C(=O)OC)c4[nH]c5ccc(OC)cc5c4CCN(C2=O)[C@@H]13	IC50	Not Active
CC[C@H]1C[C@@H]2CN3CCc4c([nH]c5ccccc45)[C@](C(=O)OC)(C2)[C@H]13 [CORONARIDINE]	IC50	Not Active
Oc1cc2c(cc1O)CN(C(=S)NCCc1ccc(Cl)cc1)CCC2 [CAPSAZEPINE]	IC50	Active
CC[C@H]1C[C@H]2CN3CC[C@@]4(O)C(=Nc5ccc(OC)cc54)[C@](C(=O)OC)(C2)[C@H]13	IC50	Not Active
CC[C@H]1C[C@@H]2CN3CCc4c([nH]c5ccccc45)[C@@](C(=O)OC)(C2)[C@@H]13	IC50	Active
COC(=O)[C@@]12C[C@@H]3C[C@H]([C@H](C)O)[C@@H]1N(CCc1c2[nH]c2ccc(OC)cc12)C3 [VOACRISTINE]	IC50	Not Active
CCC1=C[C@@H]2CN3CCc4c([nH]c5ccccc45)[C@@](C(=O)OC)(C2)[C@@H]13 [CATHARANTHINE BASE]	IC50	Active
CC[C@H]1C[C@H]2CN3CCc4c([nH]c5ccc(OC)cc45)[C@](CO)(C2)[C@H]13	IC50	Not Active
COC(=O)C1=C2Nc3ccccc3[C@@]23CCN2[C@@H]4O[C@@]56[C@@H]7C[C@@]4(CN5c4c(OC)cccc4[C@@]64CCN5CC[C@@H]6OCC[C@]6(C7)[C@H]54)[C@@H]4OCC[C@]4(C1)[C@H]23	IC50	Not Active
CC[C@H]1C[C@@H]2CN3CCc4c([nH]c5ccc(OC)cc45)[C@](C(=O)OC)(C2)[C@H]13 [VOACANGINE]	IC50	Not Active
